# test.system: Nucleotide-binding oligomerization domain-containing protein 2 (Homo sapiens, UniProt Q9HC29)
# Sequence (Q9HC29 whole entry, the tested form may be a part): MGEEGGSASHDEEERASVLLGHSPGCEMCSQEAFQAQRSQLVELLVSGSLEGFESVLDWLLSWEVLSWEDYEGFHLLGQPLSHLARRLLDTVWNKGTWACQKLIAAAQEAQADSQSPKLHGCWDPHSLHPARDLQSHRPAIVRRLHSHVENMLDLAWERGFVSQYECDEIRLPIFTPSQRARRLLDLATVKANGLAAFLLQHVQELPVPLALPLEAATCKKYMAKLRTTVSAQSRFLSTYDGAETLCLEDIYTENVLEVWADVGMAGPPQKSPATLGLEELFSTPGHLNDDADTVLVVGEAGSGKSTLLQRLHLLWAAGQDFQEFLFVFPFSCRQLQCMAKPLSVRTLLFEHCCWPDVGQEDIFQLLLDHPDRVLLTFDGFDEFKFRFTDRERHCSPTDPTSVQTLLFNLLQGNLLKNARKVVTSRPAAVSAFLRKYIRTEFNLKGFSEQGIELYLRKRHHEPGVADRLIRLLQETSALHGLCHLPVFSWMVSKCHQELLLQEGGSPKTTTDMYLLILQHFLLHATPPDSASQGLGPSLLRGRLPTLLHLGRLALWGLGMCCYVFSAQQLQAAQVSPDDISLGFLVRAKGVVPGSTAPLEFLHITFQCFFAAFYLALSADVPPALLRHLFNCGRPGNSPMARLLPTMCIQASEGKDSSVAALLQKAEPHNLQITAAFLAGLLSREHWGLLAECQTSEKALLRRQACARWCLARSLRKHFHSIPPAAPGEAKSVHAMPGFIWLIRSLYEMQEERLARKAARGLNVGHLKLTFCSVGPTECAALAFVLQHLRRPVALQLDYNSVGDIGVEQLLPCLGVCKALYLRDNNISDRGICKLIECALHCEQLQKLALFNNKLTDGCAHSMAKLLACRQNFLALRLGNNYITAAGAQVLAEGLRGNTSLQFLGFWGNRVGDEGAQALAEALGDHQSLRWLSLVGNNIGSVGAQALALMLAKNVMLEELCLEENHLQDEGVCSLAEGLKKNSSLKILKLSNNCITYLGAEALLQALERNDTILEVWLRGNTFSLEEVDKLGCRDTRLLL
# procedure.details: Inhibition of human NOD2 expressed in HEK293 cells coexpressing NFkappaB-SEAP reporter measured after 7 to 9 hrs by HEKBIue reporter assay
Kindly apply the following: met if IC50 is less than 2000 nM, not met in every other case.

Consider the worked cases shown below.
CCCS(=O)(=O)N1CCc2ccc(-c3cc(-c4ccc(N5CCNCC5)cc4)cnc3N)cc21 ... not met
COc1cc(NS(C)(=O)=O)cc(-c2cc(-c3ccc(N4CCNCC4)cc3)cnc2C)c1 ... not met
CCS(=O)(=O)Nc1cc(OC)cc(-c2cc(-c3ccc(N4CCNCC4)cc3)cnc2C)c1 ... not met

Threshold test, IC50 < 2000 nM: CCCS(=O)(=O)Nc1cc(-c2cc(-c3ccc(N4CCNCC4)cc3)cnc2N)ccc1O
not met

Criterion: IC50 strictly below 2000 nM. Is it met by COc1cc(-c2cc(-c3ccc(N4CCNCC4)cc3)cnc2N)cc(F)c1OC ?
met

# strict comparison: is reported IC50 < 2000 nM? input = COc1cc(NS(C)(=O)=O)cc(-c2cc(-c3ccc(N4CCNCC4)cc3)cnc2N)c1
met

Is it true that IC50 reported for CCCS(=O)(=O)Nc1cc(-c2cncc(-c3ccc(N4CCNCC4)cc3)c2)cc(F)c1OC is less than 2000 nM?
met

is_below(IC50, 2000 nM) for CCCS(=O)(=O)Nc1cc(-c2cc(-c3ccc(N4CCNCC4)cc3)cnc2N)ccc1C ?
met

Lab log: compare recorded IC50 with 2000 nM; is it strictly lower for CCCS(=O)(=O)NCc1cc(-c2cc(-c3ccc(N4CCNCC4)cc3)cnc2N)ccc1OC ?
met

Please state whether IC50 is below 2000 nM for CCCS(=O)(=O)Nc1cc(-c2cc(-c3cccc(S(C)(=O)=O)c3)cnc2N)ccc1OC
not met

Given the entry CCCS(=O)(=O)Nc1cc(-c2cc(-c3ccc(N4CCNCC4)cc3)cnc2N)cc(C)c1OC , would its reported IC50 be below 2000 nM?
met

---

# test.system: Nucleotide-binding oligomerization domain-containing protein 2 (Homo sapiens)
# procedure.details: Inhibition of human NOD2 expressed in HEK293 cells coexpressing NFkappaB-SEAP reporter measured after 7 to 9 hrs by HEKBIue reporter assay
pIC50: −log10 of the molar value.
MET means recorded pIC50 is 6 or above; NOT MET means it is below 6.

CCCS(=O)(=O)Nc1cc(-c2cc(-c3ccc(N4CCNCC4)cc3)cnc2C)cc(F)c1OC ... NOT MET
CCCS(=O)(=O)Nc1cc(-c2cc(-c3ccc(N4CCNCC4)cc3)cnc2N)cc(F)c1OC ... MET
CCCS(=O)(=O)Nc1cc(-c2cc(-c3ccc(N4CCNCC4)cc3)cnc2N)ccc1OC ... MET
COc1cc(NS(=O)(=O)C(C)C)cc(-c2cc(-c3ccc(N4CCNCC4)cc3)cnc2C)c1 ... MET

State whether the measured pIC50 reaches 6, counting equality as reaching it, for CCCS(=O)(=O)Nc1cc(OC)cc(-c2cc(-c3ccc(N4CCNCC4)cc3)cnc2C)c1
NOT MET

Hi, just wondering whether CCCS(=O)(=O)Nc1ccc(-c2cc(-c3ccc(N4CCNCC4)cc3)cnc2C)cc1OC shows pIC50 of 6 or higher.
NOT MET

Does CCCS(=O)(=O)Nc1cc(-c2cc(-c3ccc(N4CCNCC4)cc3)cnc2N)cc2c1OCCO2 have a reported pIC50 of at least 6?
NOT MET

Record CCCS(=O)(=O)Nc1cc(OC)cc(-c2cc(-c3ccc(N4CCNCC4)cc3)cnc2N)c1 ; criterion: pIC50 no lower than 6. Met?
MET

API: above_or_equal(metric=pIC50, cutoff=6) for item COc1cc(NS(=O)(=O)c2ccccc2)cc(-c2cc(-c3ccc(N4CCNCC4)cc3)cnc2N)c1
MET

FYI, the data here is from BindingDB's records for doi:10.1016/j.ejmech.2020.112417.
